Each recorded value in this set is attributed to patent US20260274829A1.

- Measured on: human Cereblon WT GST-tagged protein (Homo sapiens)
- Construct: purchased CISBIO 64BDCRBNPEH
- Sequence (Q96SW2 whole entry): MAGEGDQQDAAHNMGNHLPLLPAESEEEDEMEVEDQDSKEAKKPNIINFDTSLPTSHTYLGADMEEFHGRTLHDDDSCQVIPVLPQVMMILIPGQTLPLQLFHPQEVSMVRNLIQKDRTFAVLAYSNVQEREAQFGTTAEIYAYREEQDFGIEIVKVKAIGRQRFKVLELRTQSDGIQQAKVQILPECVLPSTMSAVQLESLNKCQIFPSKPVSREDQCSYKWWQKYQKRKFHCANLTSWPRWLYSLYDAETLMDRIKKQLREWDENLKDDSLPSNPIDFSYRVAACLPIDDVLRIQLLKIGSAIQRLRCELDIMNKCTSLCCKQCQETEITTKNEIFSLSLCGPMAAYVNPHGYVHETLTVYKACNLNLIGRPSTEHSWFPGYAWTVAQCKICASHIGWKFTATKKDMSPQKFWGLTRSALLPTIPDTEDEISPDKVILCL
- Assay comment: CRBN binding, HTRF CEREBLON BINDING kit
- Run conditions: CRBN binding, HTRF CEREBLON BINDING kit

{"columns": ["Compound", "IC50"],
 "data": [
  ["CN(Cc1cccc(N2CCC(=O)NC2=O)c1)C1CCN(c2ccc(Nc3ncc4nc(Nc5ccccc5)n(C5CCCC5)c4n3)cc2)CC1 [GT-05870]", "0.5 to 1 µM"],
  ["Cc1cc(Nc2ncc(Cl)c(Nc3ccccc3S(=O)(=O)C(C)C)n2)c(OC(C)C)cc1C1CCN(Cc2cncc(C3CCC(=O)NC3=O)c2)CC1 (stereo not drawn) [GT-07601]", "1 to 1.9 µM"],
  ["O=C1CCN(c2ccc(CN3CCN(C4CCN(c5ccc(Nc6ncc7nc(Nc8ccccc8)n(C8CCCC8)c7n6)cc5)CC4)CC3)nc2)C(=O)N1 [GT-05941]", "1 to 1.9 µM"],
  ["O=C1CCC(c2ccc(CN3CCC(N4CCN(c5ccc(-c6cc(F)c7c(c6)C(=O)N(C(C(=O)Nc6nccs6)c6ncn8c6CCC8)C7)cc5)CC4)CC3)cc2)C(=O)N1 (stereo not drawn) [GT-06326]", "0.5 to 1 µM"],
  ["CN(Cc1cncc(N2CCC(=O)NC2=O)c1)C1CCN(c2ccc(-c3cc(F)c4c(c3)C(=O)N(C(C(=O)Nc3nccs3)c3ncn5c3CCC5)C4)cc2)CC1 (stereo not drawn) [GT-07384]", "< 0.5 µM"],
  ["Cc1nc2c(F)cc(-c3nc(Nc4ccc(N5CCC(N6CCN(Cc7ccc(N8CCC(=O)NC8=O)cc7)CC6)CC5)cn4)ncc3F)cc2n1C(C)C [GT-06739]", "0.5 to 1 µM"],
  ["COc1ccc2cn(C3CCN(Cc4ccc(C5CCC(=O)NC5=O)cc4)CC3)nc2c1NC(=O)c1cccc(C(F)(F)F)c1 (stereo not drawn) [GT-04813]", "1 to 1.9 µM"],
  ["Cc1nc2c(F)cc(-c3nc(Nc4ccc(CN5CCN(Cc6ccc(N7CCC(=O)NC7=O)cn6)CC5)cn4)ncc3F)cc2n1C(C)C [GT-06667]", "1 to 1.9 µM"],
  ["COc1cc(N2CCC(N(C)Cc3cc(C4CCC(=O)NC4=O)cnc3F)CC2)ccc1Nc1ncc(Cl)c(Nc2ccccc2P(C)(C)=O)n1 (stereo not drawn) [GT-07696]", "< 0.5 µM"],
  ["O=C1CCC(c2ccc(CN3CCN(C4CCN(c5ccc(-c6cc(F)c7c(c6)C(=O)N(C(C(=O)Nc6nccs6)c6ncn8c6CCC8)C7)cc5)CC4(F)F)CC3)cc2)C(=O)N1 (stereo not drawn) [GT-06317]", "1 to 1.9 µM"],
  ["O=C1CCN(c2ccc(CN3CCC(N4CCN(c5ccc6c(c5)nc(NC(=O)c5cccc(C(F)(F)F)c5)n6[C@H]5CC[C@@H](CO)CC5)CC4)CC3)nc2)C(=O)N1 [GT-05024]", "1 to 1.9 µM"],
  ["COc1cc2nn(C3CCN(Cc4ccc(N5CCC(=O)NC5=O)c(F)c4)CC3)cc2cc1NC(=O)c1cccc(C(F)(F)F)c1 [GT-04751]", "1 to 1.9 µM"],
  ["CCc1cc2c(cc1N1CCN(Cc3cccc(NC4CCC(=O)NC4=O)c3)CC1)C(C)(C)c1[nH]c3cc(C#N)ccc3c1C2=O (stereo not drawn) [GT-07328]", "< 0.5 µM"],
  ["O=C1CCN(c2cccc(CN3C[C@@H]4C[C@H]3CN4c3ccc(-c4cc(F)c5c(c4)C(=O)N(C(C(=O)Nc4nccs4)c4ncn6c4CCC6)C5)cc3)c2)C(=O)N1 (stereo partly drawn) [GT-05117]", "0.5 to 1 µM"],
  ["O=C1CCC(c2ccc(CN3CCN(C4CCN(c5ccc(Nc6ncc7nc(Nc8ccccc8)n(C8CCCC8)c7n6)cc5)CC4)CC3)cc2)C(=O)N1 (stereo not drawn) [GT-05915]", "< 0.5 µM"],
  ["Cc1cc(Nc2ncc(Cl)c(Nc3ccccc3S(=O)(=O)C(C)C)n2)c(OC(C)C)cc1C1CCN(Cc2ccc(C3CCC(=O)NC3=O)cc2)CC1 (stereo not drawn) [GT-07364]", "0.5 to 1 µM"],
  ["CCc1cc2c(cc1N1CCC(N3CCN(Cc4ccc(N5CCC(=O)NC5=O)c(F)c4)CC3)CC1)C(C)(C)c1[nH]c3cc(C#N)ccc3c1C2=O [GT-07308]", "0.5 to 1 µM"],
  ["O=C1CCC(Nc2cccc(CN3CCC(n4cc(NC(=O)c5cnn6ccc(N7C[C@H]8C[C@@H]7CO8)nc56)c(C(F)F)n4)CC3)c2)C(=O)N1 (stereo partly drawn) [GT-05052]", "1 to 1.9 µM"],
  ["CC(C)(O)c1cc2nc(C3CCN(Cc4cccc(N5CCC(=O)NC5=O)c4)CC3)sc2cc1NC(=O)c1cccc(C(F)(F)F)n1 [GT-05765]", "0.5 to 1 µM"],
  ["O=C1CCN(c2cc(CN3CCN(c4ccc(-c5cc(F)c6c(c5)C(=O)N(C(C(=O)Nc5nccs5)c5ncn7c5CCC7)C6)cc4)CC3)ccn2)C(=O)N1 (stereo not drawn) [GT-07379]", "< 0.5 µM"],
  ["COc1cc(N2CCN(Cc3ccc(N4CCC(=O)NC4=O)c(F)c3)CC2)ccc1Nc1ncc(Cl)c(Nc2ccccc2P(C)(C)=O)n1 [GT-07346]", "1 to 1.9 µM"],
  ["Cc1cc(S(=O)(=O)N2CCN(Cc3cccc(N4CCC(=O)NC4=O)c3)CC2)ccc1Nc1ncc(Br)c(Nc2cccc(F)c2C(N)=O)n1 [GT-06832]", "< 0.5 µM"],
  ["CN(C)C(=O)c1cc2cnc(Nc3ccc(N4CCC(N(C)Cc5ccc(C6CCC(=O)NC6=O)cc5)CC4)cn3)nc2n1C1CCCC1 (stereo not drawn) [GT-06490]", "0.5 to 1 µM"],
  ["COc1cc(N2CCC(N3CCN(Cc4ccc(N5CCC(=O)NC5=O)cn4)CC3)CC2)c(C)cc1Nc1ncc(Br)c(Nc2ccc3nccnc3c2P(C)(C)=O)n1 [GT-06003]", "1 to 1.9 µM"]
]}
